Dear all, I have gathered published IC50 values for human ACC2 (Homo sapiens (Human), UniProt O00763); the list follows.
Your answer is read as nM, so omit the unit and give the number.

C[C@H](NC(=O)c1cnn(C)c1Cl)c1ccc(O[C@@H]2CCN(c3ccc(OCC4CC4)cc3)C2)cc1
55
CCC(=O)NC(C)Cc1ccc(C2CN(c3ccc4c(c3)OCCO4)C2)cc1 (centres unmarked)
3130
CC(=O)N[C@@H](C)c1ccc(O[C@@H]2CCN(c3cccc(N4CCC(C)C4)n3)C2)cc1 (some centres unmarked)
115
C[C@H](NC(=O)C1(O)CC1)c1ccc(CN2CCc3cc(OC[C@@H]4CC4(F)F)ccc3C2)cc1
217
CCOc1ccc(C#Cc2ccc(C(C)C(=O)NCc3ncn[nH]3)cc2)cc1 (centres unmarked)
4500
CC(=O)NC(C)CCc1ccc(Oc2ccc(OC(C)C)nc2)cc1 (centres unmarked)
60
CCNC(=O)C(C)c1ccc(O[C@@H]2CCN(c3ccnc(C4CC4)n3)C2)cc1 (some centres unmarked)
1760
CCNC(=O)C(C)c1ccc(O[C@@H]2CCN(c3ncnc(OCC(C)(C)O)c3F)C2)cc1 (some centres unmarked)
622
CC(=O)N[C@@H](C)c1ccc(O[C@@H]2CCN(c3ccnc(OCC(C)C)c3F)C2)cc1
110
CC(=O)NC(C)Cc1ccc(C#Cc2cnc(OCCc3ccccc3)nc2)cc1 (centres unmarked)
320

Could you now consider this next compound?
Recorded IC50 for CC(Cc1ccc(C#Cc2ccc(Oc3cncnc3)nc2)cc1)NC(=O)C1CC1 (centres unmarked) with human ACC2 (Homo sapiens (Human), UniProt O00763), please? 3700

* * *

Compiled from multiple publications: pIC50 readings for human ACC2 (Homo sapiens (Human), UniProt O00763).
Just the number, please; pIC50 means minus log10 of the concentration in mol/L.

Consider the molecule shown here: CC(=O)N[C@@H](C)c1ccc(O[C@@H]2CCN(c3cc(OCC(C)C)ncc3C#N)C2)cc1 What is its recorded pIC50? 6.05

Please look up its pIC50: CCNC(=O)C(C)c1ccc(C#Cc2cnn(Cc3ccccc3)c2)cc1 (centres unmarked) 6.00

// returns reported pIC50 for input CCNC(=O)C(C)c1ccc(C#Cc2ccc(OCC(C)F)cc2)cc1 (centres unmarked) 6.60

Using the record for CC(=O)N[C@@H](C)c1ccc(CN2Cc3ccc(OCC4CC4(F)F)cc3C(O)C2)cc1 (some centres unmarked) , report its pIC50. 6.89

Fill blank: measured pIC50 of the molecule CC(=O)NC(C)Cc1ccc(C#Cc2ccc(OCC(C)F)cc2)cc1 (centres unmarked) is ____. 6.74

What pIC50 value was documented for this molecule, CC(=O)N[C@@H](C)c1ccc(OC2CCN(c3ncc(OC4CCC4)cc3F)C2)cc1 (some centres unmarked) ? 7.19

Give its pIC50 value. Item: COc1ccccc1[C@H](Cn1c(=O)n(C(C)(C)C(=O)O)c(=O)c2c(C)c(-c3ncco3)sc21)O[C@H]1C[C@H]2COC[C@H]2C1 8.61

Can you look up the measured pIC50 of C[C@H](NC(=O)C1(N)CC1)c1ccc(CN2Cc3ccc(OCC4CC4)cc3C(F)C2)cc1 (some centres unmarked) for me? 7.26

* * *

Ok so here's the combined literature set: pIC50 for human ACC2 (Homo sapiens (Human), UniProt O00763).
Recall that pIC50 is obtained by taking minus log10 of the concentration measured in molar.

Query the reported pIC50 for human ACC2 (Homo sapiens (Human), UniProt O00763); item: CC(=O)NC(C)CCc1ccc(Oc2ncc(OC(C)C)cc2Cl)cc1 (stereo not shown) 5.89

Lab request: please report pIC50 under test system human ACC2 (Homo sapiens (Human), UniProt O00763) for CCCNC(=O)C(C)c1ccc(O[C@@H]2CCN(c3ccc(OCC4CC4(F)F)cn3)C2)cc1 (stereo partly shown) 6.27

Tell me reported pIC50 for CC(=O)N[C@@H](C)c1ccc(OC2CCN(c3nc(C(F)(F)F)ccc3F)C2)cc1 (stereo partly shown) , tested with human ACC2 (Homo sapiens (Human), UniProt O00763). 6.77

# query: pIC50 | item CCOc1ccc(C#Cc2ccc(CC(C)NC(=O)c3cc[nH]c3)cc2)cc1 (stereo not shown) | system: human ACC2 (Homo sapiens (Human), UniProt O00763) 6.35
